Assay: soluble on expression in E. coli; label from the status in PepcDB or PDB records
property-measured: soluble on expression in E. coli

construct-sequence: MGHHHHHHSHMRFFHWFSKWRKLHRDQEYEVTWYISWSPCTKCTRDMATFLAEDPKVTLTIFVARLYYFWDPDYQEALRSLCQKRDGPRATMKIMNYDEFQHCWSKFVYSQRELFEPWNNLPKYYILLHIMLGEILR
measured: not soluble

construct-sequence: MGSDKIHHHHHHMLEPQDQKKLDELFSSMQEANGCFLGYPFAKDFDYEPLWRFMSLTGNNLGDPFEPGTYRVNSHAFECDVVDFFARLFRACSCEVWGYVTNGGTEGNIYGLYLARELYPNAVAYFSQDTHYSVSKGVRLLRLEHSVVRSQSNGEINYDDLAQKATRYRTRPAVVVANIGTTMKEGKDDTLKIRAVLHDVGISAIYVHSDAALCGPYAPLLNPKPAFDFADGADSITLSGHKFLGAPMPCGVVLSHKLHVQRVMRNIDYIGSSDTTLSGSRNAFTPIILWYAIRSLGIEGIKQTFQQCERLAAYTADELNVRGVSAWRNPNALTVVLPPVEDSIKTKWQIATQDVSHLVVTPGTTKQQADALIETISNRNR
measured: not soluble

construct-sequence: MCLAIPSKVIAIKDNVVLLETLGVQREASLDLMGESVKVGDYVLLHIGYVMSKIDEKEALESIELYQEMIARMNETQ
measured: not soluble

construct-sequence: GEASPVDPLRPVVDASIQPLLKEHRIPGMAVAVLKDGKAHYFNYGVANRESGAGVSEQTLFEIGSVSKTLTATLGAYAVVKGAMQLDDKASRHAPWLKGSAFDSITMGELATYSAGGLPLQFPEEVDSSEKMRAYYRQWAPVYSPGSHRQYSNPSIGLFGHLAASSLKQPFAPLMEQTLLPGLGMHHTYVNVPKQAMASYAYGYSKEDKPIRVNPGMLADEAYGIKTSSADLLRFVKANIGGVDDKALQQAISLTHQGHYSVGGMTQGLGWESYAYPVTEQTLLAGNSAKVILEANPTAAPRESGSQVLFNKTGSTNGFGAYVAFVPARGIGIVMLANRNYPIEARIKAAHAILAQLAG
measured: soluble

construct-sequence: MGSDKIHHHHHHMSKVFIIGLPRTGTTSISVALLEMGLSVAHTAFTKKAFEMADAVTDAPCFSDYMHLDRIFPHAKFIYLTREMAKWVPSIIMLLEKMAPHLDPKTGKFNPILKRSFHHTFPGTLPLTENELIDCYTRHEQAVLSYFEGRDDFLSIDISKQGSLLEMKMFLGIEAQGSADFPKLNVGRDVASWKDYKHPNKINSNLAGVEHRKYYDYALVDYRTY
measured: not soluble

construct-sequence: MKEKEKIYRHLTEEEISVLEGNYCQCADWTMVEVADGFDANRCLHVMFSGQIRIGSTRGSHLLPGGLHVPTGINIARLHNCIVGDEVVIFHVNSYLANYRIGDYTRIENIDTIAVTESTSFGNGVEVTVLNETGGREVTITDNLTAQTAYLMAMYRHDKVLTESLAAMARAYAESRRSDMGAIGSHVVIHGCNTIENVCIGDYTEITGASHLCNGSINSKKEAPVSVGYNVVCRDFILCSGSSVTDGATVSHCFVGQGTHLGHLFSAHDSLFFANCQGENGEACAVFAGPYTVSMHK
measured: not soluble

construct-sequence: MGSDKIHHHHHHMSWSSAIFTGAVVHQRHRPKKHSLRYQVFCLLVDLDELPAIDKSLWLLGYNRRAILRIDDRDHGLGIPGGLKAWVANHVERAGLNTEGMKVSMLCYPRMFGYVFNPLTLYYCYGPSGTLLALLYEVENTFHERHTYVIPASVEEDGAIRHACAKQMYVSPFMPMECLYRFKIVPPGETVTVAINEADEQGPLLYASFCGKRRTLDDRALAKVLVRYPLMTLKVMGAIHWEALKLWVKGVPLHRHRKAQNPIASSIIPPEAANARSPS
measured: not soluble

construct-sequence: MSCCFSKKLFGRRSKREDRYKVSEDAVPKPEEGGEPPKYSWDRREKVNAEDFTIANIHNTTLKKESKDGGPLQMENCTDSTILYLYQTSQVIIDDCRHCTIVLGPAAGSVFVRDCANCTIFTSCQQLRTRDCTSIRISILCPTEPIVENSSDIHFFHLAMRYPELKDQMHAVGLRPFTNRIASVHDFTPAGVNGKGNFRVTPEVVQISDGQEEILRAKGVILKPSPADFIPRFTDTTDPDPTFLYVLGKSEPVDELGDRAIELLHAIYKSGMQVMGTCDLETSTVDSKLVPFAGQAERMILFQLKGNLANLECDVEFDVMSENDLVPLRNLLIHLEGKKNG
measured: not soluble

construct-sequence: MSSRKQGSQPRGQQSAEEENFKKPTRSNMQRSKMRGASSGKKTAGPQQKNLEPALPGRWGGRSAENPPSGSVRKTRKNKQKTPGNGDGGSTSEAPQPPRKKRARADPTVESEEAFKNRMEVKVKIPEELKPWLVEDWDLVTRQKQLFQLPAKKNVDAILEEYANCKKSQGNVDNKEYAVNEVVAGIKEYFNVMLGTQLLYKFERPQYAEILLAHPDAPMSQVYGAPHLLRLFVRIGAMLAYTPLDEKSLALLLGYLHDFLKYLAKNSASLFTASDYKVASAEYHRKALLEHHHHHH
measured: not soluble

construct-sequence: MKPVPTYVQDKDESTLMFSVCSLVRDQAKYDRLLESFERFGFTPDKAEFLAADNREGNQFHGFSWHKQMLPRCKGRYVIFCHEDVELVDRGYDDLVAAIEALEEADPKWLVAGVAGSPWRPLNHSVTAQALHISDVFGNDRRRGNVPCRVESLDECFLLMRRLKPVLNSYDMQGFHYYGADLCLQAEFLGGRAYAIDFHLHHYGRAIADENFHRLRQEMAQKYRRWFPGRILHCVTGRVALGGGWYEAR
measured: soluble

construct-sequence: MILRYATNLKLAKELYQASKPKLQEDKGMIELFEHTFGLQKELVKYVGIAEATTAALYSASFINKNISRLASLSTIGILSVAAYKHFEAGQGKKGAQHALDLLGLATLSLLDTFSCNKKLEHHHHHH
measured: not soluble

construct-sequence: MEQQIQMDEQENDESQGNDDQQNMSMSSSELHTMQDDHPGILLKTNTRMSITVKKLHVCGEWKWLQGGEDTCGICRMEFESACNMCKFPGDDCPLVLGICRHAFHRHCIDKWIAAPTNQPRAQCPLCRQDWTIVE
measured: not soluble

====

Assay: soluble on expression in E. coli; label from the status in PepcDB or PDB records

construct-sequence: MQPLPDPKPNTQKEHHPVDRNFIAMIDDLKTTQIPWQKPGHIMTEDEQKMWNATRMREYRRKSNETLEKSKSMLDGLKSQCTVNTVVLKNMLITKSVEDSVKLNAARFLGKSEKELMDIPEIKQMFQQYWNCRKTASNSHYEQRSLIYLDRVVSLQTEYLNYKANRNDSRSPSQLVKKIKDATMKAEAYEFFMDDKRVRKVIGELNEIDSKFKENIGAWLLQQLKIDSSLSHLLST
soluble on expression in E. coli: not soluble
--
construct-sequence: MDTMAKINQFRDERNWRPHHNEKDLALSICLEAAELLELFQWKTAEEGIKQEERIKEELADVLIYSYMMADNLGFDLDEIIEEKLKKNALKYPVPH
soluble on expression in E. coli: not soluble
--
construct-sequence: MKAVVFDFDGTMLDTENLWYTETMKYLKDTYNIDLPDEIYQQIIGTSEEPIISYMMEATNGAFDKEAFLTTVAEACHLGQQSLGFRNGFKEFFEQVKANGYKIGLATSSGFDWIEPTLDRLGILADFETIQTADHVEEIKPHPALYLQAVEALGVKPEEAIAIEDSKNGALSALQAGLKVYIVPNEATKNITFPKEATVVSSFAEIKLK
soluble on expression in E. coli: not soluble

====

Test: soluble on expression in E. coli; label from the status in PepcDB or PDB records

construct-sequence: MGSDKIHHHHHHMWIVLDTNIYFNQWLLEGANFRVFRNFCNNTGATLLLPEVVKQEVQNKYDGELAQARIELDKLAAKFSKLGVECPSNLVVSDDYDFDQLVREQYRNVILVPYSGVAHEQLVEKALAPKLPFREKEKGYRDALMWLSILDYVKESGFKESIHFVNANSKDFYSNKSGGLTLHEDLKDDLRARNMETNIIPYTSLNEFVEGHVLQELHGVDWMDFYSEFNGELDSDVCVEAIAWLDECSLSVLREKLVEANYPGLIMDGVFAASFETWDGVEDSDILAMRKIDEDRYFIDYAFDIRGLEVKLLSSPTSPASGYFGAYIDVEIDNDLATTSFFTRADFKASVVFNITAEVVEDVDVTSFKFRPR
soluble on expression in E. coli: not soluble

construct-sequence: MGHHHHHHSHMCNGSFTEKLKLLFKLHIPPAYTEVKSKDASKGDELSKEELLYFSQLHVSKPANEKEAESAKHSPEKGKGKIDIQAYLSQWQDELFKKEENIKDLPRMNQSQFIQFSKTLYNLFHEDPEEESLYQAIAVVTSLLLRMEEVGRKLHSPTSSAKGFSGTVCGSGGPSEEKTGSHLEKDPCSFREEPQWSFAFEQILASLLNEPALVRFFEKPIDVKAKLENARISQLRSRTKM
soluble on expression in E. coli: soluble

construct-sequence: MGSDKIHHHHHHMIIHEITEECFKKYGKVIDSIDLTELVSTMQTVEIPADVVYEPSISALEKLKCATELQQKTYGELPIQIGWCIGNNHKLNAVEYHRCSEVNIAATDAILILGRQQDISVENTYDTSLMEAFRIPSGTAVELYATTLHYAPCNASAGGFLVAVVLPKGTNEALEHPHTGGEDALLAAKNKWLIGHPEGGLPDGSYIGLTGENLEIK
soluble on expression in E. coli: not soluble

construct-sequence: MNTEKSEKCINVAPSGIRRMKKIHQMEIAQLFEYRRNCLGEKRTAVENVINAKVVAWNLAVVRRRHYFDLHGMTPQGAVDFVAQIVEGRRPGYIKLETGRGNHSKDNIPAIQNRLLQDFGNLSGFQIAIDPSNLGVLILSFQ
soluble on expression in E. coli: not soluble

construct-sequence: HQWQADEEAVRSATCSFSVKYLGCVEVFESRGMQVCEEALKVLRQSRRRPVRGLLHVSGDGLRVVDDETKGLIVDQTIEKVSFCAPDRNHERGFSYICRDGTTRRWMCHGFLACKDSGERLSHAVGCAFAVCLER
soluble on expression in E. coli: soluble

construct-sequence: MENIFLKRLEFKAFEEDSVFSKIEGLNKFNSLNFKKPITFFSGENGTGKSTLLEAIAVNWGFNPEGGSINFNFSTKDTHLDLHNYLTVGKSVKRATDGFFLRAESFYNVATYAENIDLDFSEYGDKSLHHQSHGESFLNLVNHRFRGNGLYLLDEPEAALSPQRQLALMISIKKLIDEGSQFIIVSHSPILLAMPDSQIISFDKDSPLEITYEESMPYEITSLFLNNKNRILSHLFAE
soluble on expression in E. coli: not soluble

construct-sequence: MEPRTIACPHKGCTKMFRDNSAMRKHLHTHGPRVHVCAECGKAFVESSKLKRHQLVHTGEKPFQCTFEGCGKRFSLDFNLRTHVRIHTGDRPYVCPFDGCNKKFAQSTNLKSHILTHAKAKNNQ
soluble on expression in E. coli: soluble
